B1: CPEB3 Ribozyme (parent)
chain: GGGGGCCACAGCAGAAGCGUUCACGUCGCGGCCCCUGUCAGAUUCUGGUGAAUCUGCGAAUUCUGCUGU

variants of: B1; assay: self-cleavage, relative activity (ratio to wild type); higher = more cleavage; co-transcriptional
Quick rule: self-cleavage of at least 0.6 means TRUE, below that means FALSE.

mutant designation: C27G U36G
category label: FALSE
//
mutant designation: C39U U55A
category label: TRUE
//
mutant designation: G50A U55C
category label: TRUE
//
mutant designation: A16C U21C
category label: FALSE
//
mutant designation: U36C C57U
category label: FALSE
//
mutant designation: C9G C57U
category label: FALSE
//
mutant designation: C32U A51U
category label: TRUE
//
mutant designation: C22U U46G
category label: FALSE
//
mutant designation: U49G U69C
category label: TRUE
//
mutant designation: U26A C63U
category label: TRUE
//
mutant designation: C12G U49C
category label: TRUE
//
mutant designation: G3A G30U
category label: FALSE
//
mutant designation: C39A C57A
category label: FALSE
//
mutant designation: A13C U36A
category label: FALSE
//
mutant designation: C34U C57G
category label: FALSE
//
mutant designation: C22G C45U
category label: FALSE
//
mutant designation: A13U U62C
category label: FALSE
//
mutant designation: C57A U64G
category label: FALSE
//
mutant designation: G1U G37C
category label: FALSE
//
mutant designation: U21C G68U
category label: TRUE
//
mutant designation: G19U C29U
category label: FALSE
//
mutant designation: U20G U69A
category label: FALSE
//
mutant designation: C12A U26G
category label: FALSE
//
mutant designation: G5U C18U
category label: FALSE
//
mutant designation: A13G U44C
category label: TRUE
//
mutant designation: C12U U61G
category label: TRUE
//
mutant designation: U21G A40C
category label: FALSE
//
mutant designation: G41A A59G
category label: TRUE
//
mutant designation: C12U U38A
category label: TRUE
//
mutant designation: G28C U49G
category label: FALSE
//
mutant designation: U43A C54U
category label: TRUE
//
mutant designation: A23G A42G
category label: TRUE
//
mutant designation: G1C U36G
category label: FALSE
//
mutant designation: C18A A59U
category label: FALSE
//
mutant designation: U20A G41A
category label: FALSE
//
mutant designation: G41A U61C
category label: FALSE
//
mutant designation: U20A U67A
category label: FALSE
//
mutant designation: G30A U67C
category label: TRUE
//
mutant designation: U20A C39G
category label: FALSE
//
mutant designation: G31U G58A
category label: FALSE
//
mutant designation: A23C G58A
category label: TRUE
//
mutant designation: A23C U43C
category label: TRUE
//
mutant designation: G3A U43A
category label: FALSE
//
mutant designation: C12A U38A
category label: FALSE
//
mutant designation: C12A G58A
category label: TRUE
//
mutant designation: A23C U62A
category label: TRUE
//
mutant designation: A60U G68A
category label: TRUE
//
mutant designation: U36A A59U
category label: FALSE
//
mutant designation: C24G U62C
category label: FALSE
//
mutant designation: A60C
category label: FALSE
//
mutant designation: A40G
category label: TRUE
//
mutant designation: G5U A13C
category label: FALSE
//
mutant designation: U53G U62G
category label: FALSE
//
mutant designation: C6A A8G
category label: FALSE
//
mutant designation: G4U U49A
category label: TRUE
//
mutant designation: U26C C34U
category label: TRUE
//
mutant designation: G41C C66A
category label: FALSE
//
mutant designation: G14C G56A
category label: FALSE
//
mutant designation: G37U G68U
category label: FALSE
//
mutant designation: G3U U67C
category label: FALSE
//
mutant designation: C7U U55G
category label: TRUE
//
mutant designation: A8C C24A
category label: TRUE
//
mutant designation: U20G G30U
category label: FALSE
//
mutant designation: A10U A15C
category label: TRUE
//
mutant designation: U49G U64C
category label: TRUE
//
mutant designation: A42U U44C
category label: TRUE
//
mutant designation: C6A C63G
category label: FALSE
//
mutant designation: C34U U38A
category label: TRUE
//
mutant designation: C24G U26A
category label: FALSE
//
mutant designation: A8G C57U
category label: FALSE
//
mutant designation: A8G A60C
category label: FALSE
